List of inhibition values.
- Measured Target: Glucose transporter (Leishmania mexicana)
- Measurement Description: ST_JUDE_LEISH: Cytotoxicity at 2uM final concentration against transgenic Leishmania Mexicana promastigotes LmGT2 that are glucose transport deficient and complemented with the L. Mexicana glucose transporter 2. Activity is measured by DNA content using SYBR green in vitro
- Assay type: functional
Value expressed in %; do not type the unit.

| Molecule | Quantity | Unit Text | Quantitative Result |
| --- | --- | --- | --- |
| CCCCN(CCCC)CCCCNc1c2ccc(Cl)cc2nc2ccc(OC)cc12 | inhibition | % | 13.3 |
| Cn1nccc1C(=O)NCCNCc1cccc(-c2cccc(-c3nc4cc(C(F)(F)F)ccc4[nH]3)c2)c1 | inhibition | % | 0.31 |
| Cc1ccc(C(=O)Nc2ccc(C)c(OC3CCN(CCC(C)C)C3)c2)cc1 (stereo not given) | inhibition | % | 5.85 |
| CN1CCC(C(=O)N(Cc2ccc(-c3ccc(CNCCc4ccc(S(C)(=O)=O)cc4)cn3)cc2)C2Cc3ccccc3C2)CC1 | inhibition | % | -0.85 |

API: the following record is the query input.
input: Query: inhibition; subject: CCCCc1cc(NCc2ccncc2)nc(Nc2ccc(OC)cc2)n1
output: 3.3
